Biological target: T1, PDZD7_3, Q9H5P4
T1 sequence (Q9H5P4 857-944, limits assumed, looked up): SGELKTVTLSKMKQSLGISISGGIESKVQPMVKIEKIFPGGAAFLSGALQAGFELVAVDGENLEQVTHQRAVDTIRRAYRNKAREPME
Test: holdup assay
Set-up: key: below the threshold = too weak to quantify, mostly under pKd 3.1 to 4
Details: plain residues with an end cap or a label only (N-terminal biotin on a linker: ado-ado)
readout.name: pKd

The following binders have reported results that may help.
Lab note: measured pKd of PYPTADHMLA [JUP, P14923] was below the threshold

Lab note: measured pKd of EDGESWEYQI [TRPV6, Q9H1D0] was below the threshold

Lab note: measured pKd of PTPDLPQTRV [KLHDC7A, Q5VTJ3] was 5.04

Lab note: measured pKd of DFLSTFHIRI [CIB2, O75838] was below the threshold

Lab note: measured pKd of DDASLPVSDV [PLEKHA1, Q9HB21] was 5.22

More entries:
Lab note: measured pKd of LAHVKHKEQI [AQP3, Q92482] was below the threshold

Lab note: measured pKd of TGLWKHETTV [ADGRA3, Q8IWK6] was 4.99

Lab note: measured pKd of DRIQSCLSDA [SBF1, O95248] was below the threshold
